Experiment: Cytotoxicity against HEK293T cells assessed as cellular growth at 100 uM by MTT assay
Assay type: cell-based, HEK-293T
Conditions: human, read-out: Activity
Rule: viability at 100 µM below 80% gives Condition met. Equal to or above 80% gives Condition not met.

Observe how each entry below is paired with its result.
COc1ccc(OC(=O)c2ccccc2)c(C(=O)Nc2ncc([N+](=O)[O-])s2)c1 = Condition met
O=C(Nc1ncc([N+](=O)[O-])s1)c1ccc([N+](=O)[O-])o1 = Condition met
Cc1ccc(-c2ccc(C(=O)Nc3ncc([N+](=O)[O-])s3)o2)cc1 = Condition not met
CC(=O)Oc1c(Cl)cc(Cl)cc1C(=O)Nc1ncc([N+](=O)[O-])s1 = Condition not met
O=C(Nc1nc2ccc([N+](=O)[O-])cc2s1)c1ccc([N+](=O)[O-])o1 = Condition met

Regarding CC(=O)Oc1c(C(=O)Nc2ncc([N+](=O)[O-])s2)cc(C(C)C)cc1C(C)C , kindly confirm whether its viability at 100 µM is beneath 80%.
Condition met

Regarding COc1ccc(OC(C)=O)c(C(=O)Nc2ncc([N+](=O)[O-])s2)c1 , kindly confirm whether its viability at 100 µM is beneath 80%.
Condition not met

Regarding O=C(Nc1ncc([N+](=O)[O-])s1)c1cccs1 [TENONITROZOLE] , kindly confirm whether its viability at 100 µM is beneath 80%.
Condition not met

Regarding COc1ccc(O)c(C(=O)Nc2ncc([N+](=O)[O-])s2)c1 , kindly confirm whether its viability at 100 µM is beneath 80%.
Condition not met

Regarding O=C(Oc1ccc(Cl)cc1C(=O)Nc1ncc([N+](=O)[O-])s1)c1ccccc1 , kindly confirm whether its viability at 100 µM is beneath 80%.
Condition met

Regarding CC(=O)Oc1cc(Cl)ccc1C(=O)Nc1ncc([N+](=O)[O-])s1 , kindly confirm whether its viability at 100 µM is beneath 80%.
Condition not met
